- System: CASKI
- protocol text: Primary qHTS to identify gynecologic anti-cancer compounds using libraries of approved drugs and bioactive compounds (AID 1345084); further: on the % scale 0 is the no-effect control and ±100 the full control effect; nearly all actives have a fitted effect of over 55% in size
- measurement parameters: Gynecologic cancer cell panel viability, ATPlite luminescence, 48 h; series mostly up to 57.5 µM
Records with an inconclusive call do not appear. Activity calls are given as the source filed them. The call rests on the fitted dose curve; in most records, active means well fitted cell-killing curve with a large enough effect; inconclusive means small, poorly fitted or top-dose-only effect, or effect the other way; inactive means flat fitted curve, though single readings scatter.
parameter measured: activity change, negative = cytotoxicity

compound=CC1=CC(=O)C[C@H]2[C@@H]1CC[C@@H](C)[C@]21CO[C@H](c2ccoc2)C1=O endpoint_result=inactive
compound="C=C1C(=O)OC2CC(C)=C(C(C)CCCO[C@@H]3O[C@H](CO)[C@@H](O)[C@H](O)[C@H]3O)C(O)C12 (stereo partly drawn)" endpoint_result=inactive
compound="O=C1NCc2nc3ccccc3c(=O)n2C1Cc1c[nH]c2ccccc12 (stereo not drawn)" endpoint_result=inactive
compound=C=C[C@H]1[C@H](O[C@@H]2O[C@H](CO)[C@@H](O)[C@H](O)[C@H]2O)OC=C2C(=O)OCC[C@]21O endpoint_result=inactive
compound=NS(=O)(=O)OC[C@@H]1C[C@@H](n2ccc3c(N[C@H]4CCc5ccccc54)ncnc32)C[C@@H]1O endpoint_result=inactive

Quick one: activity change, negative = cytotoxicity for COC(=O)[C@H](CC1C=NC=N1)NCC12CC3CC(CC(C3)C1)C2 (stereo partly drawn) ?
inactive

What do you get for `CCOC(=O)c1ccnc(CNCC(=O)N(CC)CCN(C)C)c1` ?
inactive

What do you get for CCOc1ccc(C(Nc2ccccn2)c2ccc3ccc(C)nc3c2O)cc1C (stereo not drawn) ?
inactive

What do you get for CC1(CO)CC[C@]2(C(=O)O[C@@H]3O[C@H](CO)[C@@H](O)[C@H](O)[C@H]3O)CC[C@]3(C)C(=CCC4[C@@]5(C)CC[C@H](O[C@@H]6O[C@H](C(=O)O)[C@@H](O)[C@H](O)[C@H]6O)C(C)(C)C5CC[C@]43C)C2C1 (stereo partly drawn) ?
-3.81% [at 11.6 µM] (inactive)

What do you get for `Cc1c(N2C(=O)c3ccc(C(=O)O)cc3C2=O)c(=O)n(-c2ccccc2)n1C` ?
inactive

What do you get for C[C@@H]1O[C@@H](O[C@H]2[C@H](O)[C@@H](O)[C@H](OC[C@H]3O[C@@H](OC(=O)[C@]45CCC(C)(C)C[C@H]4C4=CCC6[C@@]7(C)C[C@H](O)[C@H](O[C@@H]8O[C@H](CO)[C@@H](O)[C@H](O)[C@H]8O)[C@@](C)(C(=O)O)C7CC[C@@]6(C)[C@]4(C)CC5)[C@H](O[C@@H]4O[C@H](CO)[C@@H](O)[C@H](O)[C@H]4O)[C@@H](O)[C@@H]3O)O[C@@H]2CO)[C@H](O)[C@H](O)[C@H]1O (stereo partly drawn) ?
9.67% [at 6.55 µM] (inactive)

What do you get for `COc1ccc([C@H]2Cc3cccc(O)c3C(=O)O2)cc1` ?
inactive

What do you get for CC1(CO)CC[C@]2(C(=O)O[C@@H]3O[C@H](CO)[C@@H](O)[C@H](O)[C@H]3O)CC[C@]3(C)C(=CCC4[C@@]5(C)C[C@H](O)[C@H](O[C@@H]6OC[C@@H](O)[C@H](O)[C@H]6O)[C@@](C)(CO)C5CC[C@]43C)C2C1 (stereo partly drawn) ?
3.16% [at 11.6 µM] (inactive)
